system.name: Hordeum HPPD (SEQ ID NO:2) (Hordeum vulgare, UniProt O48604, A164G/R146V/R147D/R148G)
Construct: subcloned into a modified pET24D (Novagen) expression vector resulting in N-terminally His-tagged expression constructs; His tag (N)
Sequence (O48604 whole entry R146V/R147D/R148G/A164G): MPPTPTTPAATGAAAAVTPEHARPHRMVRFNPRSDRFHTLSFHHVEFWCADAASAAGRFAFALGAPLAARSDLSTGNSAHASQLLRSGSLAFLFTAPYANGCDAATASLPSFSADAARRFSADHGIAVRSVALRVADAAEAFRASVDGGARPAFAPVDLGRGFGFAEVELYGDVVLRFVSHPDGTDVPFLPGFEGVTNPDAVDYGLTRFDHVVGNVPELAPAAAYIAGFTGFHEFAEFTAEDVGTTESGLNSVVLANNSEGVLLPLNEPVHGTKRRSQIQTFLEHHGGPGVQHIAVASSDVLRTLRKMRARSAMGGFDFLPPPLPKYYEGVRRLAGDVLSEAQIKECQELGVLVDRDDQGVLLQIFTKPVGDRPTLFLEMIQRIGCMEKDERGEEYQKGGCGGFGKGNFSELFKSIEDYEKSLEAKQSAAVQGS
protocol.details: HPPD activity assay (HGA by HPLC), wildtype enzyme
assay.readout: Ki (nM)
Give bare numbers, in nM.

Fill in reported Ki for this entry: Cc1nonc1NC(=O)c1ccc(S(C)(=O)=O)c(S(C)(=O)=O)c1C
5.6
